These measurements were taken from patent US20230349919A1.

Target: human IL-6Rα (hIL-6Rα), barcoded negative control antigen (human) (UniProt P08887)
Sequence (P08887 20-358 limits assumed): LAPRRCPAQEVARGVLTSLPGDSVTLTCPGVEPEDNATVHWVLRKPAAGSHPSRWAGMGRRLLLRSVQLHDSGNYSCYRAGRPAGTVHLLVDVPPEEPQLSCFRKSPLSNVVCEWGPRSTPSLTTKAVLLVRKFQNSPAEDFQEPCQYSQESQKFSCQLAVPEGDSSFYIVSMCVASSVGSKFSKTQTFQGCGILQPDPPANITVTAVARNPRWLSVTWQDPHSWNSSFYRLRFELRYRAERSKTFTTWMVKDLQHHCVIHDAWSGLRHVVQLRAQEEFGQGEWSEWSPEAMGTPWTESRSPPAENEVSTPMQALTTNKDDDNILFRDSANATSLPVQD
Assay: barcoded-antigen count on source cell (scRNA-seq)
Listing of recorded REGN78.L15 ab raw by entry.
State the answer as a number, implicitly in counts.

Table 1 Line # 37 antibody (SP_B_cell) (antibody, human IgG4, V domains shown) VH: QVHLVESGGDVVQPGRSLRLSCAASGFTFSYYGMHWVRQAPFKGLEWVAVIWYDGSNKYYADSVKGRFTITRDNSKNTVYLQMNSLRAEDTAIYYCARWGGFGVTGTHLDYWGQGTLVTVSS VL: DIQLTQSPSLLSASVGDRVTITCWASQDIAGHFAWYQQKPGTVPKLLIYAISTLDSGVPSRFSGSRSGTEFTLTISSLQPEDFATYYCQHLNSYPYTFGQGTKLEIK ... 60
Table 1 Line # 54 antibody (SP_Plasma_cell) (antibody, human IgG4, V domains shown) VH: QVQLVQSGAEVKKPGASVKVSCKASGYTFTNYGISWVRQAPGQGLEWMGWISVYNGNTNYAQKLQGRVTMTTDTSTSTAYMEVRSLRSDDTAVYYCARGVNWNYVFDYWGQGTLVTVSS VL: DIQMTQSPSSLSASVGDRVTITCRASQGIRNDLGWYQQKPGKAPKRLIYVVSSLQSGVPSRFSGSGSGTEFTLTISSLQPEDFATYYCLQHNSYPWTFGQGTKVEIK ... 26
Table 1 Line # 46 antibody (SP_Plasma_cell) (antibody, human IgG4, V domains shown) VH: EVQLEASGGDLVQPGRSLRLSCAASGFIFDDFGMHWVRQAPGKGLEWVSGISWNGGHIGYADSVKGRFTISRDNAKNSLYLQMNSLRAEDTALYYCAKEHSSSWYGFFDFWGRGTLVTVSS VL: DIQMTQSPSSLSASVGDRVTITCRASQGLSNSVAWYQQKPGQIPRLLISAAASLQSGVPSRFSGSGSGTDFTLTISRLQPEDVATYYCQNYNSAPRTFGQGTNVEIK ... 2

In the following, a different binder is considered.
Problem: Find the measured REGN78.L15 ab raw of Table 1 Line # 12 antibody (BM_Plasma_cell) (antibody, human IgG4, V domains shown) VH: QVQLVESGGGVVQPGRSLRLSCAASGFTFSSYGMHWVRQAPGKGLEWVSVISYDGSNKYYADSVKGRFTISRDNSKNTLFLQVNSLRAEDTAVYYCAKEGRTGFDYWGQGTLVTVSS VL: DIQMTQSPSSLSASVGDRVTITCRARQGISNYLAWFQQKPGKVPKLLIYAASTLQSGVPSRFSGSGSGTDFTLTISSLQPEDVATYYCQKYNSAPWTFGQGTKVEIK and report it.
Result: 348
